# Assay explanation: ABO incompatibility hemolytic assay of complement activity (CH50-type)
# Format: cell-based, human
# Condition details: human; peptide 0.8 mg/ml (~0.5 mM); read-out: decrease of ABO hemolysis compared to PA-C9Sar
# Method: FIG. 1A-1B show PIC1 peptides' inhibition of complement activation in an ABO incompatibility assay. […] Inhibition of ABO incompatibility hemolysis in a CH50-type assay. Peptides are at a final concentration of 0.5 mM. Values are represented as a percent of the positive control, which consists of human O sera and AB red blood cells in GVBS^++ buffer. Data are the means of n=3 independent experiments±SEM. […]
Bridge positions count the residues as written; N and C are the ends. Square brackets hold non-standard residues; d marks the D form. Peptide text beside a SMILES is read from it. S5 = C=CCCC[C@](C)(N)C(=O)O; Sar = CNCC(=O)O
Reported metric: decrease in ABO hemolysis compared to reference peptide at 1 h (%)
A number alone suffices; assume %.

(Q) What value of measured decrease in ABO hemolysis compared to reference peptide at 1 h is listed for CC[C@H](C)[C@H](N)C(=O)N[C@@H](C)C(=O)N[C@@H](CC(C)C)C(=O)N[C@H](C(=O)N[C@@H](CC(C)C)C(=O)N[C@@H](CCC(=O)O)C(=O)N1CCC[C@H]1C(=O)N[C@H](C(=O)N(C)CC(=O)N[C@@H](CS)C(=O)N[C@@]1(C)CCCC=CCCC[C@@](C)(C(=O)O)NC(=O)[C@H](C)NC(=O)[C@H](CCCNC(=N)N)NC(=O)[C@H](CCC(=O)O)NC1=O)[C@@H](C)CC)[C@@H](C)CC [PA-0155] (H-IALILEPI[Sar]C[S5]ERA[S5]-OH; staple 11-15) ?
(A) 64
